# ASSAY EXPLANATION: Example 23: Bz-HC.HCl API single dose intranasal human PK study vs HB API
# Format: in vivo, humans
# RUN CONDITIONS: both sexes, human, plasma, inhaled or intranasal, 13.34 mg, 13.34 mg Bz-HC•HCl API, n = 22, read-out: AUC0-10 h of Bz-HC, Median (Min-Max)
# Description: This was a randomized, double blind, single dose, two way crossover, single center study in recreational non-dependent opioid users. Subjects participated in a Screening Phase (Visit 1), Naloxone Challenge Test (Visit 2, Check in), Treatment Phase (Visit 2, inpatient) and Follow up Phase (Visit 3). A sufficient number of male and female subjects between the ages of 18-55 years were to be screened in order to enroll approximately 30 subjects into the Treatment Phase to ensure 24 completers.
Where a name gives a salt, the structure may show the parent alone.
EXPERIMENTAL ENDPOINT: AUC(0-t)
Number plus unit, in that order.

Lookup: Need AUC(0-t) of COc1ccc2c3c1O[C@H]1C(OC(=O)c4ccccc4)=CC[C@H]4[C@@H](C2)N(C)CC[C@]314 [Bz-HC•HCl, benzoate-hydrocodone hydrochloride] , thanks.
Found: 2.64 ng·h/mL

====

# ASSAY EXPLANATION: Example 23: Bz-HC.HCl API single dose intranasal human PK study vs HB API
# Assay type: in vivo, humans
# RUN CONDITIONS: both sexes, human, plasma, inhaled or intranasal, 13.34 mg, 13.34 mg Bz-HC•HCl API, n = 22, read-out: t1/2 of Bz-HC, Mean (SD) (converted)
Structures can show the parent of a compound that is named as a salt.
EXPERIMENTAL ENDPOINT: half-life (h)
Number in h, nothing else.

Lookup: Need half-life of COc1ccc2c3c1O[C@H]1C(OC(=O)c4ccccc4)=CC[C@H]4[C@@H](C2)N(C)CC[C@]314 [Bz-HC•HCl, benzoate-hydrocodone hydrochloride] , thanks.
Found: 1.42

====

# ASSAY EXPLANATION: Example 23: Bz-HC.HCl API single dose intranasal human PK study vs HB API
# Assay type: in vivo, humans
# RUN CONDITIONS: both sexes, human, plasma, inhaled or intranasal, 13.34 mg, 13.34 mg Bz-HC•HCl API, read-out: AUC0-1 h of Bz-HC, Mean (SD)
Counter-ions that a name gives are not always drawn.
EXPERIMENTAL ENDPOINT: AUC(0-t) (ng·h/mL)
Number in ng·h/mL, nothing else.

Lookup: Need AUC(0-t) of COc1ccc2c3c1O[C@H]1C(OC(=O)c4ccccc4)=CC[C@H]4[C@@H](C2)N(C)CC[C@]314 [Bz-HC•HCl, benzoate-hydrocodone hydrochloride] , thanks.
Found: 1.5

====

# ASSAY EXPLANATION: Example 23: Bz-HC.HCl API single dose intranasal human PK study vs HB API
# Format: in vivo, humans
# RUN CONDITIONS: both sexes, human, plasma, inhaled or intranasal, 13.34 mg, 13.34 mg Bz-HC•HCl API, n = 23, read-out: AUC0-3 h of Bz-HC, Median (Min-Max)
Counter-ions that a name gives are not always drawn.
EXPERIMENTAL ENDPOINT: AUC(0-t) (ng·h/mL)
Number in ng·h/mL, nothing else.

Lookup: Need AUC(0-t) of COc1ccc2c3c1O[C@H]1C(OC(=O)c4ccccc4)=CC[C@H]4[C@@H](C2)N(C)CC[C@]314 [Bz-HC•HCl, benzoate-hydrocodone hydrochloride] , thanks.
Found: 2.19

====

# ASSAY EXPLANATION: Example 23: Bz-HC.HCl API single dose intranasal human PK study vs HB API
# Format: in vivo, humans
# RUN CONDITIONS: both sexes, human, plasma, other: intranasal, 13.34 mg Bz-HC•HCl API, at 0.25 hour post-dose, read-out: highest mean (SD) plasma concentration of Bz-HC
Structures can show the parent of a compound that is named as a salt.
EXPERIMENTAL ENDPOINT: concentration at […] (ng/mL)
Number in ng/mL, nothing else.

Lookup: Need concentration at […] of COc1ccc2c3c1O[C@H]1C(OC(=O)c4ccccc4)=CC[C@H]4[C@@H](C2)N(C)CC[C@]314 [Bz-HC•HCl, benzoate-hydrocodone hydrochloride] , thanks.
Found: 2.01

====

# ASSAY EXPLANATION: Example 22: intranasal crushed / oral intact tablets human PK study vs HB/APAP
# RUN CONDITIONS: human, plasma, inhaled or intranasal, 13.34 mg
EXPERIMENTAL ENDPOINT: AUC(0-t) (ng·h/mL)
Number in ng·h/mL, nothing else.

Lookup: Need AUC(0-t) of COc1ccc2c3c1OC1C(OC(=O)c4ccccc4)=CCC4C(C2)N(C)CCC314 (stereo not shown) [Bz-HC, benzoate-hydrocodone] , thanks.
Found: 13.2

====

# ASSAY EXPLANATION: Example 22: intranasal crushed / oral intact tablets human PK study vs HB/APAP
# RUN CONDITIONS: human, plasma, inhaled or intranasal, 13.34 mg
EXPERIMENTAL ENDPOINT: Tmax (min)
Number in min, nothing else.

Lookup: Need Tmax of COc1ccc2c3c1OC1C(OC(=O)c4ccccc4)=CCC4C(C2)N(C)CCC314 (stereo not shown) [Bz-HC, benzoate-hydrocodone] , thanks.
Found: 27

====

# ASSAY EXPLANATION: Example 23: Bz-HC.HCl API single dose intranasal human PK study vs HB API
# Format: in vivo, humans
# RUN CONDITIONS: both, human, plasma, inhaled or intranasal, 13.34 mg, AUC0-[…] of Bz-HC, Mean (SD), 13.34 mg Bz-HC•HCl API, read-out: AUC0-0.25 h of Bz-HC, Mean (SD)
Counter-ions that a name gives are not always drawn.
EXPERIMENTAL ENDPOINT: AUC(0-t)
Number plus unit, in that order.

Lookup: Need AUC(0-t) of COc1ccc2c3c1O[C@H]1C(OC(=O)c4ccccc4)=CC[C@H]4[C@@H](C2)N(C)CC[C@]314 [Bz-HC•HCl, benzoate-hydrocodone hydrochloride] , thanks.
Found: 0.213 ng·h/mL

====

# ASSAY EXPLANATION: Example 23: Bz-HC.HCl API single dose intranasal human PK study vs HB API
# Format: in vivo, humans
# RUN CONDITIONS: both sexes, human, plasma, inhaled or intranasal, 13.34 mg, 13.34 mg Bz-HC•HCl API, n = 22, read-out: t1/2 of Bz-HC, Median (Min-Max) (converted)
# Text: This was a randomized, double blind, single dose, two way crossover, single center study in recreational non-dependent opioid users. Subjects participated in a Screening Phase (Visit 1), Naloxone Challenge Test (Visit 2, Check in), Treatment Phase (Visit 2, inpatient) and Follow up Phase (Visit 3). A sufficient number of male and female subjects between the ages of 18-55 years were to be screened in order to enroll approximately 30 subjects into the Treatment Phase to ensure 24 completers.
Where a name gives a salt, the structure may show the parent alone.
EXPERIMENTAL ENDPOINT: half-life (h)
Number in h, nothing else.

Lookup: Need half-life of COc1ccc2c3c1O[C@H]1C(OC(=O)c4ccccc4)=CC[C@H]4[C@@H](C2)N(C)CC[C@]314 [Bz-HC•HCl, benzoate-hydrocodone hydrochloride] , thanks.
Found: 1.3

====

# ASSAY EXPLANATION: Example 23: Bz-HC.HCl API single dose intranasal human PK study vs HB API
# Assay type: in vivo, humans
# RUN CONDITIONS: both sexes, human, plasma, inhaled or intranasal, 13.34 mg, 13.34 mg Bz-HC•HCl API, n = 22, read-out: AUC0-6 h of Bz-HC, Mean (SD)
Structures can show the parent of a compound that is named as a salt.
EXPERIMENTAL ENDPOINT: AUC(0-t) (ng·h/mL)
Number in ng·h/mL, nothing else.

Lookup: Need AUC(0-t) of COc1ccc2c3c1O[C@H]1C(OC(=O)c4ccccc4)=CC[C@H]4[C@@H](C2)N(C)CC[C@]314 [Bz-HC•HCl, benzoate-hydrocodone hydrochloride] , thanks.
Found: 3.4

====

# ASSAY EXPLANATION: Example 23: Bz-HC.HCl API single dose intranasal human PK study vs HB API
# Assay type: in vivo, humans
# RUN CONDITIONS: both sexes, human, plasma, inhaled or intranasal, 13.34 mg, 13.34 mg Bz-HC•HCl API, n = 22, read-out: AUC0-8 h of Bz-HC, Median (Min-Max)
Counter-ions that a name gives are not always drawn.
EXPERIMENTAL ENDPOINT: AUC(0-t)
Number plus unit, in that order.

Lookup: Need AUC(0-t) of COc1ccc2c3c1O[C@H]1C(OC(=O)c4ccccc4)=CC[C@H]4[C@@H](C2)N(C)CC[C@]314 [Bz-HC•HCl, benzoate-hydrocodone hydrochloride] , thanks.
Found: 2.62 ng·h/mL
